System: THRa:RXRa (NR concentration 90 nM, RXRa partner concentration 90 nM)
Method Description: PBM binding z-score (relative to random genomic background probes); higher = stronger binding; sequences stand for … in GC…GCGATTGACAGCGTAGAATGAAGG
Classify as follows. Reported PBM binding z-score greater than or equal to 2: Fulfilled. Reported PBM binding z-score below: Not fulfilled.

Input: Does `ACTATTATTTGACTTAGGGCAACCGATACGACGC` have a reported PBM binding z-score of at least 2?
Output: Not fulfilled

====

Listed here are sequences together with their documented PBM binding z-score.
Tested on: PPARg:RXRa IVT, anti-PPARg (NR concentration 270 nM, RXRa partner concentration 90 nM)
Method Description: PBM binding z-score (relative to random genomic background probes); higher = stronger binding; sequences stand for … in GC…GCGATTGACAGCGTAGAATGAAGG
Reply: number alone, nothing else.

Would you please look over these solved cases?
| Seq Text | PBM binding z-score |
| --- | --- |
| CCTAGTTGGTCAGGAGGTCACACAACGGATATGA | 3.66 |
| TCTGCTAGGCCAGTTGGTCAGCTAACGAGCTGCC | 0.538 |
| TATACAGGGTCAAAGGCCATAGTACGAATGTCGA | 5.22 |
| GGAACGAGGACAAAGTTGATAGCATCTGTCGACG | 1.44 |
| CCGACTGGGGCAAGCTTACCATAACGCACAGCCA | 2.37 |
| CCGACTGGGGCATAAGGTTACAATAAGCCAGCCC | 3.35 |
| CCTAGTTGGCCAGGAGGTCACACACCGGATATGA | 2.22 |
| ATCTCTAGGTAAAACTCAGTTCAGTGAAGAACGC | 1.95 |
| GCGACTGGGGCAAAGCAGGTTACCATTAGGTTGG | 3.63 |
| CAAACTAGGTTAAGAGGTCAAAGTCCGCTTCCCG | 7.32 |

Input: Consider the sequence `CCTATTAGTTGCCCATAAGGGCAACCGAAGCTCG` . State its measured PBM binding z-score.
Output: 0.926

Input: Consider the sequence `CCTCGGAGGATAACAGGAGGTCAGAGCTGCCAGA` . State its measured PBM binding z-score.
Output: 0.0476
